Exercise: for every item that follows, state its recorded protein stability index.
B1: TRAF3IP2 (parent)
chain: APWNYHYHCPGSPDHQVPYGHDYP

Variants of: B1
Experiment: protein stability index of a GFP-peptide fusion (GPS, HEK-293T) (PSI 1-6); higher = more stable;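 further: lentivirally expressed fusions sorted by FACS into six bins by GFP to DsRed ratio, PSI derived from sequencing read proportions per bin multiplied by bin number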
Conditions: c terminus: a fixed tail appended
Respond using a number only.

Problem: Reported protein stability index, variant `Y19T` : ____
Solution: 2.85

Problem: Same lookup for `P10R` , please.
Solution: 1.29

Problem: Repeat for the following variant: `D22V`
Solution: 1.6

Problem: Moving on to `N4E`
Solution: 3.39

Problem: Please give the result for `Y23T` too.
Solution: 2.89

Problem: Now consider `H8F` .
Solution: 2.22

Problem: Thanks! And `P2C` ?
Solution: 2.15

Problem: Try the variant `H6N`
Solution: 3.15

Problem: Similarly, `P13L` ?
Solution: 2.16

Problem: Also, `N4Q` please.
Solution: 3.04

Problem: How about `Y23L` ?
Solution: 2.27

Problem: Follow-up entry: `H15Y`
Solution: 2.14

Problem: Now this one: `P13I`
Solution: 1.87

Problem: Please do the same for `P2R` as well.
Solution: 2.28

Problem: One more variant: `P10Y`
Solution: 2.13

Problem: Another variant to look at: `N4H`
Solution: 1.97

Problem: Please give the result for `D22W` too.
Solution: 2.16

Problem: Now consider `G11R` .
Solution: 2.04

Problem: Now give it for `P18E` too.
Solution: 2.54

Problem: Thanks! And `C9Q` ?
Solution: 2.16

Problem: Next: `Q16C`
Solution: 2.07

Problem: Next variant: `Y5N`
Solution: 3.43
